# EXPERIMENT NOTES: qHTS assay to test for compound auto fluorescence at 535 nm (green) in HepG2 cell free culture (AID 720686)
# DETAILS: Cell-free medium, green autofluorescence 485/535 nm; series mostly up to 46 µM
Activity calls are given as the source filed them. Calls follow the shape of the dose curve; as a rule, active = well fitted curve in the direction sought with a large enough effect in the repeat runs; inconclusive = weak or mixed curves; inactive = flat fitted curve, though single readings scatter.

MOLECULE: CNCC(=O)N[C@@H](CCCN=C(N)N)C(=O)N[C@H](C(=O)N[C@@H](Cc1ccc(O)cc1)C(=O)N[C@H](C(=O)N[C@@H](Cc1cnc[nH]1)C(=O)N1CCC[C@H]1C(=O)N[C@@H](C)C(=O)O)C(C)C)C(C)C
outcome: inactive
//
MOLECULE: NCC(O)CC(=O)O (stereo not drawn)
outcome: inactive
//
MOLECULE: CC(=O)O[C@H]1C[C@@H]2CC[C@@H]3[C@H](CC[C@@]4(C)[C@H]3C[C@H]([N+]3(C)CCCCC3)[C@@H]4OC(C)=O)[C@@]2(C)C[C@@H]1[N+]1(C)CCCCC1
outcome: inactive
